experiment: Rat pharmacokinetic experiment; type: in vivo; details: po, male SD rats, gavage (p.o.), 10 mg/kg, plasma
Please respond with 1 when measured AUC(0-t) is strictly beneath 30000 ng·h/mL, and with 0 in all other cases.

Request: Is AUC(0-t) of C[C@H](NC(=O)c1ccc2c(c1)c1cnccc1c(=O)n2-c1ccc(C(F)(F)F)cc1)c1ccccn1 strictly below 30000 ng·h/mL?
Result: 0

Request: Is AUC(0-t) of CNS(=O)(=O)c1ccc2c(c1)c1cn(C)nc1c(=O)n2-c1ccc(C(F)(F)F)cc1 strictly below 30000 ng·h/mL?
Result: 1

Request: Is AUC(0-t) of C[C@H](NC(=O)c1ccc2c(c1)c1ccccc1c(=O)n2-c1ccc(C(F)(F)F)cc1)c1ccccn1 strictly below 30000 ng·h/mL?
Result: 1

Request: Is AUC(0-t) of C[C@H](NC(=O)c1ccc2c(c1)c1nn(C)cc1c(=O)n2-c1ccc(C(F)(F)F)cc1)c1ccccn1 strictly below 30000 ng·h/mL?
Result: 0

Request: Is AUC(0-t) of Cc1cc(=O)n(-c2ccc(C(F)(F)F)cc2)c2ccc(C(=O)N[C@@H](C)c3ccccn3)cc12 strictly below 30000 ng·h/mL?
Result: 1

Request: Is AUC(0-t) of CC(C)NC(=O)c1ccc2c(-c3ccc(C(F)(F)F)cc3)cccc2c1 [Control compound 1, reference compound] strictly below 30000 ng·h/mL?
Result: 1

====

assay: Rat pharmacokinetic experiment; type: in vivo; details: po, male SD rats, gavage (p.o.), 10 mg/kg, plasma
Listing of recorded MRT last by entry.
Kindly format the answer as number then unit.

Solved entries (count: 5):
> print(dat)
                                   compound  measurement.kind  assay.result
1  Cc1cc(=O)n(-c2ccc(C(F)(F)F)cc2)c2ccc(C(=O)N[C@@H](C)c3ccccn3)cc12 [Example T-277]          MRT last        7.28 h
2  C[C@H](NC(=O)c1ccc2c(c1)c1ccccc1c(=O)n2-c1ccc(C(F)(F)F)cc1)c1ccccn1 [Example T-272]          MRT last        9.96 h
3  CNS(=O)(=O)c1ccc2c(c1)c1cn(C)nc1c(=O)n2-c1ccc(C(F)(F)F)cc1 [Example T-32]          MRT last        6.88 h
4  C[C@H](NC(=O)c1ccc2c(c1)c1nn(C)cc1c(=O)n2-c1ccc(C(F)(F)F)cc1)c1ccccn1 [Example T-105]          MRT last        9.48 h
5  CC(C)NC(=O)c1ccc2c(-c3ccc(C(F)(F)F)cc3)cccc2c1 [Control compound 1, reference compound]          MRT last        2.92 h

Please examine the following record next.
Request: I'd like to know its MRT last. The compound in question is C[C@H](NC(=O)c1ccc2c(c1)c1cnccc1c(=O)n2-c1ccc(C(F)(F)F)cc1)c1ccccn1 [Example T-253]
Result: 9.78 h

====

assay: Rat pharmacokinetic experiment; assay type: in vivo; conditions: po, male SD rats, gavage (p.o.), 10 mg/kg, plasma
Please respond with Met when measured Tmax is strictly beneath 5 h, and with Not met in all other cases.

Known results for molecules:
> print(dat)
                                   molecule  assigned.category
1  C[C@H](NC(=O)c1ccc2c(c1)c1cnccc1c(=O)n2-c1ccc(C(F)(F)F)cc1)c1ccccn1                Met
2  Cc1cc(=O)n(-c2ccc(C(F)(F)F)cc2)c2ccc(C(=O)N[C@@H](C)c3ccccn3)cc12                Met
3  CNS(=O)(=O)c1ccc2c(c1)c1cn(C)nc1c(=O)n2-c1ccc(C(F)(F)F)cc1                Met
4  C[C@H](NC(=O)c1ccc2c(c1)c1ccccc1c(=O)n2-c1ccc(C(F)(F)F)cc1)c1ccccn1            Not met
5  CC(C)NC(=O)c1ccc2c(-c3ccc(C(F)(F)F)cc3)cccc2c1 [Control compound 1, reference compound]                Met

Now, please, on to the next molecule.
Request: Is Tmax of C[C@H](NC(=O)c1ccc2c(c1)c1nn(C)cc1c(=O)n2-c1ccc(C(F)(F)F)cc1)c1ccccn1 strictly below 5 h?
Result: Met

From: patent US20250154105A1
